Each recorded value in this set is attributed to patent US20260209362A1.

# assay_target: T1, biotinylated recombinant human IL-12Rβ2 (human, UniProt Q99665 24-622, random biotinylated)
# T1 construct: Recombinant protein produced in-house; also called hIL-12RB2; human IL-12RB2
# T1 sequence: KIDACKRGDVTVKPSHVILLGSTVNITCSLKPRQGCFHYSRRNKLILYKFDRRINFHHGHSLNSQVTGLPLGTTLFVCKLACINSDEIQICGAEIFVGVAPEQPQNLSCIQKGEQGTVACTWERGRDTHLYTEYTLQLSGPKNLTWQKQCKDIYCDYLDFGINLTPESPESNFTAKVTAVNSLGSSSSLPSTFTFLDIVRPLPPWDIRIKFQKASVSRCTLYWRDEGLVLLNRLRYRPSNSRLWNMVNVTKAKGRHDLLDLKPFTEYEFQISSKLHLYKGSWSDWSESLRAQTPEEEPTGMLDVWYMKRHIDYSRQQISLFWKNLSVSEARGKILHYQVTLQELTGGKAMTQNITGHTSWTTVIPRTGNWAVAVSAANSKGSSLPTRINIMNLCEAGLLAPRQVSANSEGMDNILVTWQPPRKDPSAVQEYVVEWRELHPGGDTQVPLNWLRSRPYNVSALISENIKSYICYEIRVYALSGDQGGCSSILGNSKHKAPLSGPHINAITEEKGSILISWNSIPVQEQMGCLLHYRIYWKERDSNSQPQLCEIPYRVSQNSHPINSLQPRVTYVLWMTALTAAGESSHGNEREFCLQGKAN
# assay: BLI, P.E., off-rate ranking
attribute_measured: Response
I only need the number, thanks.

Fill blank: measured Response of the binder anti-IL-12Rβ2 VHH clone 3CRH83 (clone ID 20390) (VHH, not shown: small tags and cut ends, periplasmic extract) VHH: QVQLQESGGGLVQAGGSLKLSCAASGNTFSINAMAWYRQAPGQELELVAAISDVGNTIYADSMKGRFTISRGNADNTVYLQMNSLKPEDTATYYCNAGTFYTSPGDSYYRGYDFWGQGTQVTVSS is ____.
0.693

Next entry: anti-IL-12Rβ2 VHH clone 3CRHS31 (clone ID 20418) (VHH, not shown: small tags and cut ends, periplasmic extract) VHH: QVQLQESGGGLVQAGGSLRLSCAASGFTFSTYAMSWVRQAPGKGLEWVSSVNSGGLSTDYADSVEGRFTISRDDAKNMLFLQMNSLKPEDTARYYCAKYEDCSDYVCDRAGYWGQGTQVTVSS
0.234

// query: anti-IL-12Rβ2 VHH clone 3CAHS124 (clone ID 20400) (VHH, not shown: small tags and cut ends, periplasmic extract) VHH: QVQLQESGGGLVQPGGSLRLSCAASGRTINAYIMGWFRQAPGKEREFVAAVSGSGGSTYYADSVKGRFTISRDNAKNTVNLQMDNLRSEDTDVYYCAATYESVYLQNPGQYDYWGQGTQVTVSS
0.293

Others:
Need Response, item anti-IL-12Rβ2 VHH clone 3CRH27 (clone ID 20379) (VHH, not shown: small tags and cut ends, periplasmic extract) VHH: QVQLQESGGGLVQAGGSLRLSCTASGSIVSIYNMDWYRQAPGNEREWVASITSSGDPYYDGSAKGRFTISRDNAKMTVYLQMNSLKPEDTAVYYCKVPTEKGNYWGQGTQVTVSS
0.138
